target: Sp1 zinc-finger DNA-binding domain (truncated Sp1) (UniProt P08047 619-774); experiment: fluorescence correlation spectroscopy
Sequence (P08047 619-774): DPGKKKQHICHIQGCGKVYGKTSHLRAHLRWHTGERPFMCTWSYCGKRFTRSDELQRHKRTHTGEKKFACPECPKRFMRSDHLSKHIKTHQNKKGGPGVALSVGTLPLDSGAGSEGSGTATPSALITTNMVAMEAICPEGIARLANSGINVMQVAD
pKd: −log10 of the molar value.
observation type: pKd

INSERT INTO results (binder, data_value) VALUES
  ('HIV LTR Sp1 site 23 bp (dsDNA) DNA 1: ACTTTCCAGGGAGGCGTGGCCTG DNA 2: CAGGCCACGCCTCCCTGGAAAGT', 7.49);

Origin of measurements: paper PMC1669725
